- runDescription: Plasma concentration in female CD-1 nude mice, formulation groups A-C
- Format: in vivo
- conditionsUsed: female, CD-1 nude, mouse, oral, time point 6 h, individual mouse, read-out: Calc. Conc. (ng/mL)
metric: concentration at 6 h (ng/mL)
Report the figure in ng/mL without appending any unit label.

Prompt line: I would be grateful if you could share the reported concentration at 6 h for CS(=O)(=O)O.Cc1nc(-c2nc(-c3ccc(OC(F)(F)F)cc3)no2)nn1Cc1cccc(N2CCC(S(C)(=O)=O)CC2)c1 [MESYLATE SALT, methanesulfonate] .
Response line: 1660

====

- runDescription: Plasma concentration in female CD-1 nude mice, formulation groups A-C
- Assay type: in vivo
- conditionsUsed: female, CD-1 nude, mouse, oral, time point 8 h, individual mouse, read-out: Calc. Conc.
metric: concentration at 8 h (nM)
Report the figure in nM without appending any unit label.

Prompt line: I would be grateful if you could share the reported concentration at 8 h for CS(=O)(=O)O.Cc1nc(-c2nc(-c3ccc(OC(F)(F)F)cc3)no2)nn1Cc1cccc(N2CCC(S(C)(=O)=O)CC2)c1 [MESYLATE SALT, methanesulfonate] .
Response line: 2910
